Entries annotated with measured log10 CC50
- experimental.protocol: in vitro
- cond: African green monkey, CC50 (Vero-E6), half maximal cytotoxic concentration, MTT assay, Vero-E6 cells
Where a name gives a salt, the structure may show the parent alone.
quantity: log10 CC50 (log10 of the value in µM)

# molecule, log10 CC50
data = [
    ("CCN1CCN(C(=O)N[C@@H](C(=O)N[C@@H]2C(=O)N3C(C(=O)O)=C(CSc4nnnn4C)CS[C@H]23)c2ccc(O)cc2)C(=O)C1=O", 1.84),
    ("Cc1onc(-c2c(F)cccc2Cl)c1C(=O)N[C@@H]1C(=O)N2[C@@H]1SC(C)(C)[C@@H]2C(=O)O", 2.98),
    ("OCc1cc(C(O)CNCCCCCCOCCCCc2ccccc2)ccc1O (stereo not shown)", 0.61),
    ("CC(=O)Oc1ccccc1C(=O)Nc1ncc([N+](=O)[O-])s1 [Nitazoxanide]", 2.82),
    ("C[C@H]1COc2c(N3CCN(C)CC3)c(F)cc3c(=O)c(C(=O)O)cn1c23", 3.33),
    ("CN1C(C(=O)Nc2ccccn2)=C(O)c2ccccc2S1(=O)=O", 3.26),
    ("CC(=O)Oc1ccccc1C(=O)O", 3.10),
    ("CO/N=C(\\C(=O)N[C@@H]1C(=O)N2C(C(=O)O)=C(CSc3nc(=O)c(=O)[nH]n3C)CS[C@H]12)c1csc(N)n1", 2.65),
    ("CN(C)CCC(c1ccc(Cl)cc1)c1ccccn1 (stereo not shown) [Chlorpheniramine maleate]", 2.67),
    ("O=C(N[C@H](CO)[C@H](O)c1ccc([N+](=O)[O-])cc1)C(Cl)Cl", 1.53),
    ("c1ccc2c(CC3=NCCN3)cccc2c1", 2.80),
    ("O=C(c1ccccc1)c1ccc2n1CCC2C(=O)O (stereo not shown)", 3.31),
    ("CC(C)(O/N=C(\\C(=O)N[C@@H]1C(=O)N2C(C(=O)[O-])=C(C[n+]3ccccc3)CS[C@H]12)c1csc(N)n1)C(=O)O", 3.74),
    ("C[C@@H]1C[C@H]2[C@@H]3CCC4=CC(=O)C=C[C@]4(C)[C@@]3(F)[C@@H](O)C[C@]2(C)[C@@]1(O)C(=O)CO", 3.28),
    ("C[C@H]1C[C@@H]2[C@H]([C@@H](O)C[C@@]3(C)[C@H]2CC[C@]3(O)C(=O)CO)[C@@]2(C)C=CC(=O)C=C12", 3.52),
    ("COc1ccc2c(c1)c(CC(=O)O)c(C)n2C(=O)c1ccc(Cl)cc1", 2.83),
    ("CC1(C)S[C@@H]2[C@H](NC(=O)[C@H](N)c3ccc(O)cc3)C(=O)N2[C@H]1C(=O)O", 2.79),
    ("CC(=O)Nc1ccc(O)cc1", 3.70),
    ("Cc1ccc(-c2cc(C(F)(F)F)nn2-c2ccc(S(N)(=O)=O)cc2)cc1", 2.15),
    ("O=C(O)Cc1ccccc1Nc1c(Cl)cccc1Cl [Diclofenac sodium]", 2.14),
    ("CC(C)C(=O)OCC(=O)[C@@]12O[C@H](C3CCCCC3)O[C@@H]1C[C@H]1[C@@H]3CCC4=CC(=O)C=C[C@]4(C)[C@H]3[C@@H](O)C[C@@]12C [Ciclesonide]", 2.08),
    ("C[C@H]1c2cccc(O)c2C(=O)C2=C(O)[C@]3(O)C(=O)C(C(N)=O)=C(O)[C@@H](N(C)C)[C@@H]3[C@@H](O)[C@@H]21", 2.80),
    ("C[C@]12CCC(=O)C=C1CC[C@@H]1[C@@H]2[C@@H](O)C[C@@]2(C)[C@H]1CC[C@]2(O)C(=O)CO [Hydrocortisone]", 2.79),
    ("CC(=O)NC[C@H]1CN(c2ccc(N3CCOCC3)c(F)c2)C(=O)O1", 2.91),
    ("CC[C@H]1OC(=O)[C@H](C)[C@@H](O[C@H]2C[C@@](C)(OC)[C@@H](O)[C@H](C)O2)[C@H](C)[C@@H](O[C@@H]2O[C@H](C)C[C@H](N(C)C)[C@H]2O)[C@](C)(O)C[C@@H](C)CN(C)[C@H](C)[C@@H](O)[C@]1(C)O", 2.90),
    ("O=C(Nc1ccc([N+](=O)[O-])cc1Cl)c1cc(Cl)ccc1O [Niclosamide]", 2.31),
    ("CO/N=C(\\C(=O)N[C@@H]1C(=O)N2C(C(=O)O)=C(COC(C)=O)CS[C@H]12)c1csc(N)n1", 3.50),
    ("COc1c(N2C[C@@H]3CCCN[C@@H]3C2)c(F)cc2c(=O)c(C(=O)O)cn(C3CC3)c12", 3.35),
    ("CCC(=O)O[C@]1(C(=O)SCF)[C@H](C)C[C@H]2[C@@H]3C[C@H](F)C4=CC(=O)C=C[C@]4(C)[C@@]3(F)[C@@H](O)C[C@@]21C [Fluticasone Propionate]", 1.51),
    ("Cc1cnc(NC(=O)C2=C(O)c3ccccc3S(=O)(=O)N2C)s1", 2.42),
    ("CC(C)Cc1ccc(C(C)C(=O)O)cc1 (stereo not shown)", 3.07),
]
